For each record, write down the corresponding T/C.
test system: L1210 leukemia ip in BDF1 mice, survival T/C; assay: NCI In Vivo Anticancer Drug Screen. Data for tumor model L1210 Leukemia (intraperitoneal) in B6D2F1 (BDF1) mice; details: endpoint: mean survival time; dose: 400.0 mg/kg/injection; schedule: Q01DX001 (ip); vehicle: carboxymethylcellulose (CMC); higher = longer survival
Inconclusive results and toxic doses are left out.

molecule	reported-result
COc1cc(C(=O)N(C)OC)cc(OC)c1OC	100 % of control
O=C1/C(=N/O)CCCc2ccccc21	103 % of control
C/C(=N\NC(N)=S)C(C)(C)O	104 % of control
CCOCc1nc(N)nc(N)c1-c1ccc(Cl)c(Cl)c1	108 % of control

Kindly give each listed record's T/C.
1. Cc1ccc(C(=O)OCC2OC(n3cnc4c(=S)nc(N)[nH]c43)C(OC(=O)c3ccc(C)cc3)C2OC(=O)c2ccc(C)cc2)cc1 (stereo unspecified)
2. COc1cc(N(CCCl)CCCl)ccc1C=Nc1cccc(Cl)c1
3. Nc1cccc2c1/C(=N/O)c1ccccc1-2

**Result**
1: 111 % of control; 2: 100 % of control; 3: 98 % of control

Record T/C for all entries; do not skip any.
1. CCOC(=O)c1ccc2c(c1)C(=O)c1cc([N+](=O)[O-])ccc1-2
2. CCOc1ccc(Br)cc1C1N(Cc2ccccc2OC)CCCN1Cc1ccccc1OC
3. COc1cc(C=Nc2cc(Br)cc(Br)c2)ccc1N(CCCl)CCCl
4. CC(=O)Oc1ccc(-c2ccc(Cl)cc2)cc1

**Result**
1. 96 % of control
2. 94 % of control
3. 179 % of control
4. 97 % of control
